System: metabolically active whole cell
Assay overview: substrate panel in normals and HIV + patients, TB infection (Table 4)
Type: cell-based, human
Design: unit not given here
Condition notes: HIV + PATIENTS
Parameter: MEAN DELTA FL

Field: example entries. Status: answers known.
{"columns": ["Compound", "MEAN DELTA FL"],
 "data": [
  ["NCC(=O)N1CCC[C@H]1C(=O)Nc1ccc2c(c1)Oc1cc(NC(=O)[C@@H]3CCCN3C(=O)CN)ccc1C21OC(=O)c2ccccc21", 21.4],
  ["O=C1OC2(c3ccc(NC(=O)[C@@H]4CCCN4)cc3Oc3cc(NC(=O)[C@@H]4CCCN4)ccc32)c2ccccc21 [PRO, (H-L-Pro)2 --Rho 110 .2TFA]", 11.0],
  ["CC(C)C[C@H](N)C(=O)Nc1ccc2c(c1)Oc1cc(NC(=O)[C@@H](N)CC(C)C)ccc1C21OC(=O)c2ccccc21", 130.5]
]}

API: the following record is the query input.
Ask: Write down the reported MEAN DELTA FL of CC(C)[C@H](N)C(=O)N[C@@H](CCCCN)C(=O)Nc1ccc2c(c1)Oc1cc(NC(=O)[C@H](CCCCN)NC(=O)[C@@H](N)C(C)C)ccc1C21OC(=O)c2ccccc21 , test system: metabolically active whole cell.
Reply: 17.7

FYI, the data here is from patent US5698411A.
